Where do these numbers come from? They come from patent US20260242735A1.

molecular target: human CD33 P46S (human, UniProt P20138 18-364); test: flow cytometry, mutant on cells, IgG
Sequence (P20138 18-364 P46S limits assumed): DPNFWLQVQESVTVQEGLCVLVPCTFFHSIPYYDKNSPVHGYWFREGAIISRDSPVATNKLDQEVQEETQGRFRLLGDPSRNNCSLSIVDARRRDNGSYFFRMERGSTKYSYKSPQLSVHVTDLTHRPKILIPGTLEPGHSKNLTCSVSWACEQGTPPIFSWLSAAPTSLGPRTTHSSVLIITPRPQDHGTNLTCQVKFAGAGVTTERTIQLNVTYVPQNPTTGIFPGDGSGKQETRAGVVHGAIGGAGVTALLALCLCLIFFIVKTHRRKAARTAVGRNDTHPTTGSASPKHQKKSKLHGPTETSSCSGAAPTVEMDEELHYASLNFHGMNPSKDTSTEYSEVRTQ
Measured Mean % WT Binding of individual entries
Please answer using the number first and the unit second.

The cases that follow already have their Mean % WT Binding on record.
Refmab #2 (antibody, human IgG1, V domains shown, Tested in IgG format; human IgG1 Fc silent (PG-LALA)) VH: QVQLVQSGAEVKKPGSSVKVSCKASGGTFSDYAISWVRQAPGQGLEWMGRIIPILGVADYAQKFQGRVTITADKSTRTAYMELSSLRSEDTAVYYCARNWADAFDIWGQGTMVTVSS VL: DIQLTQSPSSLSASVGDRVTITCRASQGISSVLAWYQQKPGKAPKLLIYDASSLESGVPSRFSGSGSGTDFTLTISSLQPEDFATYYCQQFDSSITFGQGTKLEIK : 102 % WT binding
Refmab #3 (antibody, human IgG1, V domains shown, Tested in IgG format; human IgG1 Fc silent (PG-LALA)) VH: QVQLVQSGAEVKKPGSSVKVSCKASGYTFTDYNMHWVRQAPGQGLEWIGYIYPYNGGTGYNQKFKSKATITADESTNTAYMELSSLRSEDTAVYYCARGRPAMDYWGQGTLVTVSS VL: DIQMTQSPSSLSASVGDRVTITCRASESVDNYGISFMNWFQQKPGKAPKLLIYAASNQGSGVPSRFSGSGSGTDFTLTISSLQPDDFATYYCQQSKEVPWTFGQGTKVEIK : 3.5 % WT binding
Refmab #4 (antibody, human IgG1, V domains shown, Tested in IgG format; human IgG1 Fc silent (PG-LALA)) VH: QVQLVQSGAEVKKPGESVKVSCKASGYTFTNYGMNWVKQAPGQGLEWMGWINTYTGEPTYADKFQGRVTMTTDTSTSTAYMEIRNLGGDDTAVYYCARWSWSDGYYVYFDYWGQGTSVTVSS VL: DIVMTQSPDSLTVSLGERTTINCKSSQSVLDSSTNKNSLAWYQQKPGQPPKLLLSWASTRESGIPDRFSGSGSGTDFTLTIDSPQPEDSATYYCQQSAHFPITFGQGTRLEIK : 107 % WT binding

# Mean % WT Binding (binder: Refmab #1 (antibody, human IgG1, V domains shown, Tested in IgG format; human IgG1 (Absolute Antibody hP67.6, Cat. No. Ab00283-10.0); also called hP67.6) VH: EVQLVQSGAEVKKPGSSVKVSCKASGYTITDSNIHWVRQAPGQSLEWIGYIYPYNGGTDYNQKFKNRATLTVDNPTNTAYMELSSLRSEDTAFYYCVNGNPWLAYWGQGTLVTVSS VL: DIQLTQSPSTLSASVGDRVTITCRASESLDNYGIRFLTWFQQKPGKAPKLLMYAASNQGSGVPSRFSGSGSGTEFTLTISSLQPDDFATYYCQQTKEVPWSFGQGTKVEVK ) is 21.4 % WT binding
